The reported numbers originate from patent US9914735B2.

Molecular target: FLT3 (Homo sapiens (Human), UniProt P36888)
Sequence (P36888 27-993): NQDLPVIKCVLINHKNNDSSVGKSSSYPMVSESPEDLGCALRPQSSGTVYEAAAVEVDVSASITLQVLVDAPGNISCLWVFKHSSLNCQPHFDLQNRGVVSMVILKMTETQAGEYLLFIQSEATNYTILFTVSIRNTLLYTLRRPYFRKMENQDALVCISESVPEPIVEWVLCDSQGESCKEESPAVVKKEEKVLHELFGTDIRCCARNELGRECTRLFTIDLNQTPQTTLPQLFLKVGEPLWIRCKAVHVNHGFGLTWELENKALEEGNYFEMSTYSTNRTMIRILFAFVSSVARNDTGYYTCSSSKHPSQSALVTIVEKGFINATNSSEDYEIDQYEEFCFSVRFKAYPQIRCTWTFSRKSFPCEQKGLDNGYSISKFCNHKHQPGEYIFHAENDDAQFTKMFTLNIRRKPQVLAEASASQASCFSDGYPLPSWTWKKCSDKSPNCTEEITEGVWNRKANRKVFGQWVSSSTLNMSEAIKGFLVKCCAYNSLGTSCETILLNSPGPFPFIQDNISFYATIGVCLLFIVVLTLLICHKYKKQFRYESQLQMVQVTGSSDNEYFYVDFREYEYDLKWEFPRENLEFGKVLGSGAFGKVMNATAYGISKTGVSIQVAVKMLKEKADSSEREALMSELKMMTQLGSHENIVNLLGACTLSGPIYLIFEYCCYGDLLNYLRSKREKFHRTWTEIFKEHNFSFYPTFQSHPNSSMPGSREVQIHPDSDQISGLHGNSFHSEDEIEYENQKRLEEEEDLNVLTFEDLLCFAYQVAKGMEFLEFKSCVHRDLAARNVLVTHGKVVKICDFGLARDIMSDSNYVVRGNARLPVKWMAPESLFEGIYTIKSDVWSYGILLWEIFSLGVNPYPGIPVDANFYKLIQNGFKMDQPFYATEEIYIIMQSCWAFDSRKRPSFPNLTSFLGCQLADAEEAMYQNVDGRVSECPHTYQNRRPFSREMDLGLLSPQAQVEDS
Experiment: FLT3 kinase test (Z'-LYTE)
Type: biochemical
Details: Table 1; read-out: FLT3-inhibition IC50-value
pIC50: −log10 of the molar value.
QUANTITY NAME: pIC50

STRUCTURE SMILES STRING	TEST VALUE
C[C@@H](Oc1cc(-c2n[nH]c3ccc(C#N)cc23)cc2nn(C)cc12)[C@H]1CNC(=O)C1	4.97
C[C@@H](Oc1nc(-c2cnn(C3CC3)c2)cc2nn(C)cc12)[C@H]1CNC(=O)C1	4.66
C[C@@H](Oc1cc(-c2ccc3c(c2)c(N)nn3C)cc2nn(C)cc12)[C@H]1CNC(=O)C1	5.62
C[C@@H](Oc1nc(-c2ccc3cnn(C)c3c2)cc2nn(C)cc12)[C@H]1CNC(=O)C1	4.71
